# SYSTEM TESTED: PmSiaT (Proteus mirabilis)
# Construct: made in house
# ASSAY NOTES: nanoDSF thermal shift assay, PmSiaT
# Type: binding
# CONDITIONS USED: nanoDSF, relative to Neu5Ac, ligand 1.25 mM; <−2.0 °C nonbinder; read-out: PmSiaT ΔTm
Quick reference: ΔTm of the listed items.
Phrase the answer as number then unit, nothing more needed.

INSERT INTO measurements (compound, property, result) VALUES
  ('CC(=O)NC1C(OCc2ccccc2)CC(O)(C(=O)O)OC1C(O)C(O)CO (stereo not shown) [Compound 3a]', 'ΔTm', '4.8 °C'),
  ('CC(=O)NC1C(OCc2cc(F)cc(F)c2)CC(O)(C(=O)O)OC1C(O)C(O)CO (stereo not shown) [Compound 3e]', 'ΔTm', '6.8 °C');

ΔTm for CC(=O)N[C@H]1[C@H]([C@H](O)[C@H](O)CO)OC(O)(C(=O)O)C[C@@H]1O (stereo partly shown) [Neu5Ac, 5-N-acetyl neuraminic acid, reference compound] ?
0 °C

Further, for CC(=O)NC1C(OCc2cc(Br)cc(Br)c2)CC(O)(C(=O)O)OC1C(O)C(O)CO (stereo not shown) [Compound 3f] ?
14.3 °C

* * *

# SYSTEM TESTED: PmSiaT (Proteus mirabilis, UniProt B4EZY7)
# Construct: made in house
# Sequence (B4EZY7 whole entry): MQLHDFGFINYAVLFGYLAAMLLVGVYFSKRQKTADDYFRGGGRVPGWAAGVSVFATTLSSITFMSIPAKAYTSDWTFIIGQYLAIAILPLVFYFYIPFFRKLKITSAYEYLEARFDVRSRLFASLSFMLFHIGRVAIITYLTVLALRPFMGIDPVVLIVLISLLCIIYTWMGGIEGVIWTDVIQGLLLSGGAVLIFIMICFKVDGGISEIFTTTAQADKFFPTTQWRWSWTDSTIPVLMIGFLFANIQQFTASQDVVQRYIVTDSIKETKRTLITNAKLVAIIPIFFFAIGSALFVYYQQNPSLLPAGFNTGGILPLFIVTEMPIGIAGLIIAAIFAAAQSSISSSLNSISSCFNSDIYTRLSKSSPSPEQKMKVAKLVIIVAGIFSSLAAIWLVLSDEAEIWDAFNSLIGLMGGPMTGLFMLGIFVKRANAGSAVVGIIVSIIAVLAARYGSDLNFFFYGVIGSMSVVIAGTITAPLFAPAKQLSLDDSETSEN
# ASSAY NOTES: nanoDSF thermal shift assay, PmSiaT
# Format: binding
# CONDITIONS USED: PmSiaT Tm, experiment 3, second capillary, 1.25 mM
PROPERTY: Replicate 3 (°C)
State the answer as a number, implicitly in °C.

// solved cases for Replicate 3 follow
INSERT INTO assay_data (compound, property, quantitative_result) VALUES
  ('CC(=O)NC1C(OCc2ccccc2)CC(O)(C(=O)O)OC1C(O)C(O)CO (centres unmarked) [Compound 3a]', 'Replicate 3', 54.2),
  ('CCC(=O)NC1C(O)CC(O)(C(=O)O)OC1C(O)C(O)CO (centres unmarked) [Compound 6a]', 'Replicate 3', 46.6),
  ('O=C(Cc1ccccc1)NC1C(O)CC(O)(C(=O)O)OC1C(O)C(O)CO (centres unmarked) [Compound 6e]', 'Replicate 3', 45.9),
  ('CSCC(O)C(O)C1OC(O)(C(=O)O)CC(O)C1NC(C)=O (centres unmarked) [Compound 8a]', 'Replicate 3', 46.0),
  ('CC(=O)NC1C(OCc2cc(F)cc(F)c2)CC(O)(C(=O)O)OC1C(O)C(O)CO (centres unmarked) [Compound 3e]', 'Replicate 3', 56.1),
  ('CCSCC(O)C(O)C1OC(O)(C(=O)O)CC(O)C1NC(C)=O (centres unmarked) [Compound 8b]', 'Replicate 3', 46.1),
  ('CC(=O)NC1C(O)CC(O)(C(=O)O)OC1C(O)C(O)CI (centres unmarked) [Compound 8e]', 'Replicate 3', 47.2);

API: the following record is the query input.
Quick one: Replicate 3 for CC(=O)NC1C(OCc2cc(Br)cc(Br)c2)CC(O)(C(=O)O)OC1C(O)C(O)CO (centres unmarked) [Compound 3f] ?
63.6

* * *

# SYSTEM TESTED: UniProt:A0A0H2XJ46
# Sequence (A0A0H2XJ46 entry or part of it): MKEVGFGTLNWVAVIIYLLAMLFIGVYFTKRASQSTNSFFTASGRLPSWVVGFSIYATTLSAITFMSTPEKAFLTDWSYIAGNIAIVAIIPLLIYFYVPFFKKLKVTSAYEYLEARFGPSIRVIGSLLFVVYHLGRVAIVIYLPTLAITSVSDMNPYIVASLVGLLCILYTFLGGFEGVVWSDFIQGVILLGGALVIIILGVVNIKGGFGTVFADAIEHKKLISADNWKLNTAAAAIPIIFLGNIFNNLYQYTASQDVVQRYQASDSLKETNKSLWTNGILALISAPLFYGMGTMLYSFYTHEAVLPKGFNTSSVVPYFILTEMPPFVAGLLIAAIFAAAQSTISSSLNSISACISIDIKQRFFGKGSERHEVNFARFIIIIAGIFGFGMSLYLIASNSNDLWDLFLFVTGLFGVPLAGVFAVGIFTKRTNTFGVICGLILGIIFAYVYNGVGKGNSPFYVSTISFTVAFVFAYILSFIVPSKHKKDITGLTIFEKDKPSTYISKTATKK
# ASSAY NOTES: nanoDSF thermal shift assay, SaSiaT
# Assay type: binding
# CONDITIONS USED: SaSiaT, experiment 3, first capillary, 1.25 mM
PROPERTY: Tm 3 (°C)
The answer is to be given in °C; state only the numeric part.

See these solved cases before continuing.
INSERT INTO assay_data (compound, property, measurement_unit, quantitative_result) VALUES
  ('O=C(NC1C(O)CC(O)(C(=O)O)OC1C(O)C(O)CO)c1ccccc1 (centres unmarked)', 'Tm 3', '°C', 46.4),
  ('CC(=O)N[C@H]1[C@H]([C@H](O)[C@H](O)CO)OC(C(=O)O)=C[C@@H]1O [Compound 9, reference compound]', 'Tm 3', '°C', 45.4);

Please give the measured Tm 3 for this compound: O=C(Cc1ccccc1)NC1C(O)CC(O)(C(=O)O)OC1C(O)C(O)CO (centres unmarked)
51.8

CC(=O)NC1C(O)CC(O)(C(=O)O)OC1C(O)C(O)CBr (centres unmarked) ?
50.8

Query CC(=O)NC1C(OCc2ccccc2)CC(O)(C(=O)O)OC1C(O)C(O)CO (centres unmarked) next
56.6

Request: O=C(CO)N[C@H]1[C@H]([C@H](O)[C@H](O)CO)OC(O)(C(=O)O)C[C@@H]1O (some centres unmarked) [Neu5Gc, 5-N-glycolyl neuraminic acid, reference compound]
53.6

Check O=C(CCl)NC1C(O)CC(O)(C(=O)O)OC1C(O)C(O)CO (centres unmarked) too.
49.7

Let us now turn to CCSCC(O)C(O)C1OC(O)(C(=O)O)CC(O)C1NC(C)=O (centres unmarked)
50.0
